System: ACHN renal
run_description: NCI tumour cell line growth inhibition, 48 h; in the data active = GI50 below about 0.43 µM; inactive = the rest
Outcomes: YES = active, NO = inactive

>  <compound>
O=C1c2ccccc2C(=O)c2c1ccc(C(Br)Br)c2Cl

>  <class_label>
NO

$$$$
>  <compound>
Cn1c2c(c3ccc(-c4ccn[nH]4)cc3c1=O)C(=O)c1ccccc1-2

>  <class_label>
NO

$$$$
>  <compound>
C/C=C(\C)C(=O)O[C@H]1C=CC(=O)O[C@H]1CC[C@H](O)[C@H](C)O

>  <class_label>
NO

$$$$
>  <compound>
OCC#Cc1ccccc1C#CCCCCCCC#Cc1ccccc1C#CCO

>  <class_label>
NO

$$$$
>  <compound>
CCc1c2c(nc3ccc(OC(=O)NCc4ccc(B5OC(C)(C)C(C)(C)O5)cc4)cc13)-c1cc3c(c(=O)n1C2)COC(=O)[C@]3(O)CC

>  <class_label>
YES

$$$$
>  <compound>
Cc1ccc(-c2cc3c(NC(=O)C4CC4)ncnc3o2)cc1

>  <class_label>
NO

$$$$
>  <compound>
CC(C)CCC[C@@H](C)[C@H]1CCC2C3=CCn4c(=O)ccc(=O)n4C3CC[C@@]21C (some centres not stated)

>  <class_label>
NO

$$$$
>  <compound>
COc1ccc(C(=O)n2nc(/C=C/c3ccc(O)c(OC)c3)cc2/C=C/c2ccc(O)c(OC)c2)cc1

>  <class_label>
YES

$$$$
>  <compound>
COc1ccc2c(c1)CCC1C2CCC2(C)C3=CC(O)CCC3CC12 (configuration not stated)

>  <class_label>
NO

$$$$
>  <compound>
CC(C)OP(=O)(OC(C)C)C([CH2][Sn]([CH3])([CH3])[Cl])P(=O)(OC(C)C)OC(C)C

>  <class_label>
NO

$$$$
>  <compound>
CCN(CC)CCOc1nc2c3ccc(Cl)cc3nn2c2ccccc12

>  <class_label>
NO

$$$$
>  <compound>
CS(=O)(=O)Nc1ccc(Nc2c3ccccc3nc3cc(N)ccc23)cc1

>  <class_label>
YES

$$$$
